assay: Pharmacokinetic analysis after a single intraperitoneal dose in CD1 mice; format: in vivo, mouse; details: female, mouse, 10 mg/Kg single IP dose, murine serum
measurementKind: Cmax (µM)
Provide only the numeric value, understood in µM.

[ask] Could you share which Cmax value was measured for C[C@H](N(Cc1ccc(F)cc1)C(=O)CN1C(=O)O[C@@]2(CCc3cc(NC(=O)CCCCCCCCCCCNc4ccc5c(c4)C(=O)N(C4CCC(=O)NC4=O)C5=O)ccc32)C1=O)C(F)(F)F (stereo partly shown) ?
[reply] 7
